System: amaranthus retroflexus
Experiment: Herbicidal activity, pot culture method (primary and secondary screening test)
Assay type: in vivo
Conditions: dose 75 g/ha, sprayed at 3-leaf stage, investigated 15 days later
Recorded Endpoint: inhibition ratio, Amaranthus retroflexus (%)
Express it in %; write the number only.

Recorded results for 3 compounds are shown here.
[
  {
    "Compound": "Cc1ccccc1-n1c(=O)c2cc(C(=O)C3=C(O)CCCC3=O)ccc2n(C)c1=O [Compound 20]",
    "Display Unit": "%",
    "inhibition ratio, Amaranthus retroflexus": 60
  },
  {
    "Compound": "Cc1c(C(=O)C2=C(O)CC(C)(C)CC2=O)ccc2c1c(=O)n(-c1ccccc1C(F)(F)F)c(=O)n2C [Compound 91]",
    "Display Unit": "%",
    "inhibition ratio, Amaranthus retroflexus": 80
  },
  {
    "Compound": "Cn1c(=O)n(-c2ccccc2Cl)c(=O)c2cc(C(=O)C3=C(O)CC(C)(C)CC3=O)ccc21 [Compound 6]",
    "Display Unit": "%",
    "inhibition ratio, Amaranthus retroflexus": 75
  }
]

Here is another compound to look at.
compound CS(=O)(=O)c1ccc(C(=O)C2C(=O)CCCC2=O)c([N+](=O)[O-])c1 [Mesotrione, mesotrione, reference compound] , inhibition ratio, Amaranthus retroflexus observed: 75

====

Test system: eclipta prostrata
Experiment: Herbicidal activity, pot culture method (primary and secondary screening test)
Assay type: in vivo
Conditions: primary screening, pot culture, 150 g/ha, sprayed at 3-leaf stage, result 15 days later
Description: This test example is for describing the herbicidal activity inhibition ratio (%) (the dose is 150 g/ha) of the compound with a structure shown in Formula (I). Primary screening test (pot culture method): The test targets are abutilon theophrasti, digitaria sanguinalis, amaranthus retroflexus, echinochloa crusgalli, eclipta prostrata and setaria viridis. […]
Recorded Endpoint: herbicidal activity inhibition ratio (%), Eclipta prostrata
Express it in %; write the number only.

Recorded results for 5 compounds are shown here.
[
  {
    "Compound": "Cc1ccccc1-n1c(=O)c2cc(C(=O)C3=C(O)CCCC3=O)ccc2n(CC(C)C)c1=O",
    "Target Under Test": "eclipta prostrata",
    "Display Unit": "%",
    "Assay Result": 20
  },
  {
    "Compound": "COc1cccc(Cn2c(=O)n(-c3ccccc3C)c(=O)c3cc(C(=O)C4=C(O)CC(C)(C)CC4=O)ccc32)c1",
    "Target Under Test": "eclipta prostrata",
    "Display Unit": "%",
    "Assay Result": 0
  },
  {
    "Compound": "Cn1c(=O)n(-c2ccc(OC(F)(F)F)cc2)c(=O)c2cc(C(=O)C3=C(O)CCCC3=O)ccc21",
    "Target Under Test": "eclipta prostrata",
    "Display Unit": "%",
    "Assay Result": 80
  },
  {
    "Compound": "Cc1cccc(-n2c(=O)c3cc(C(=O)C4=C(O)CCCC4=O)ccc3n(C)c2=O)c1",
    "Target Under Test": "eclipta prostrata",
    "Display Unit": "%",
    "Assay Result": 95
  },
  {
    "Compound": "Cc1ccccc1-n1c(=O)c2cc(C(=O)C3=C(O)CC(C)(C)CC3=O)ccc2n(C)c1=O",
    "Target Under Test": "eclipta prostrata",
    "Display Unit": "%",
    "Assay Result": 95
  }
]

compound `Cn1c(=O)n(-c2ccc(C(F)(F)F)cc2)c(=O)c2cc(C(=O)C3=C(O)CCCC3=O)ccc21` , herbicidal activity inhibition ratio (%), Eclipta prostrata observed: 60

compound `Cc1ccccc1-n1c(=O)c2c(C)c(C(=O)C3=C(O)CCCC3=O)ccc2n(C)c1=O` , herbicidal activity inhibition ratio (%), Eclipta prostrata observed: 100

====

Tested on: amaranthus retroflexus
Assay: Herbicidal activity, pot culture method (primary and secondary screening test)
Type: in vivo
Settings: dose 75 g/ha, sprayed at 3-leaf stage, investigated 15 days later
Recorded Endpoint: inhibition ratio, Amaranthus retroflexus (%)
Express it in %; write the number only.

Recorded results for 3 molecules are shown here.
[
  {
    "Molecule": "Cn1c(=O)n(-c2ccccc2Cl)c(=O)c2cc(C(=O)C3=C(O)CCCC3=O)ccc21 [Compound 5]",
    "Assay Result": 75
  },
  {
    "Molecule": "Cn1c(=O)n(-c2cccc(Br)c2)c(=O)c2cc(C(=O)C3=C(O)CCCC3=O)ccc21 [Compound 23]",
    "Assay Result": 100
  },
  {
    "Molecule": "Cc1cccc(C)c1-n1c(=O)c2cc(C(=O)C3=C(O)CCCC3=O)ccc2n(C)c1=O [Compound 34]",
    "Assay Result": 100
  }
]

molecule CCn1c(=O)n(-c2ccccc2C)c(=O)c2cc(C(=O)C3=C(O)CC(C)CC3=O)ccc21 (stereo not shown) [Compound 70] , inhibition ratio, Amaranthus retroflexus observed: 70

====

Test system: amaranthus retroflexus
Assay: Herbicidal activity, pot culture method (primary and secondary screening test)
Assay type: in vivo
Conditions: dose 75 g/ha, sprayed at 3-leaf stage, investigated 15 days later
Recorded Endpoint: inhibition ratio, Amaranthus retroflexus (%)
Express it in %; write the number only.

Recorded results for 3 compounds are shown here.
[
  {
    "Given Smiles": "CCc1ccccc1-n1c(=O)c2cc(C(=O)C3=C(O)CCCC3=O)ccc2n(C)c1=O",
    "inhibition ratio, Amaranthus retroflexus [%]": 95
  },
  {
    "Given Smiles": "Cc1ccccc1-n1c(=O)c2cc(C(=O)C3=C(O)CC(C)(C)CC3=O)ccc2n(C)c1=O",
    "inhibition ratio, Amaranthus retroflexus [%]": 90
  },
  {
    "Given Smiles": "CC(C)c1ccccc1-n1c(=O)c2cc(C(=O)C3=C(O)CCCC3=O)ccc2n(C)c1=O",
    "inhibition ratio, Amaranthus retroflexus [%]": 60
  }
]

Here is another compound to look at.
compound `CCn1c(=O)n(-c2ccccc2C)c(=O)c2cc(C(=O)C3=C(O)CCCC3=O)ccc21` , inhibition ratio, Amaranthus retroflexus observed: 100

====

System: setaria viridis
Experiment: Herbicidal activity, pot culture method (primary and secondary screening test)
Type: in vivo
Details: primary screening, pot culture, 150 g/ha, sprayed at 3-leaf stage, result 15 days later
Recorded herbicidal activity inhibition ratio (%), Setaria viridis by entry
Express it in %; write the number only.

Recorded results for 5 molecules are shown here.
[
  {
    "Molecule": "Cc1ccccc1-n1c(=O)c2cc(C(=O)C3=C(O)CC(C)(C)CC3=O)ccc2n(Cc2ccccc2)c1=O",
    "Target Under Test": "setaria viridis",
    "Assay Result": 10
  },
  {
    "Molecule": "Cc1ccccc1-n1c(=O)c2cc(C(=O)C3=C(O)CCCC3=O)ccc2n(Cc2ccccc2)c1=O",
    "Target Under Test": "setaria viridis",
    "Assay Result": 10
  },
  {
    "Molecule": "CCc1ccccc1-n1c(=O)c2cc(C(=O)C3=C(O)CC(C)(C)CC3=O)ccc2n(C)c1=O",
    "Target Under Test": "setaria viridis",
    "Assay Result": 75
  },
  {
    "Molecule": "Cn1c(=O)n(-c2ccc(Br)cc2)c(=O)c2cc(C(=O)C3=C(O)CC(C)(C)CC3=O)ccc21",
    "Target Under Test": "setaria viridis",
    "Assay Result": 30
  },
  {
    "Molecule": "Cc1cccc(Cl)c1-n1c(=O)c2cc(C(=O)C3=C(O)CC(C)(C)CC3=O)ccc2n(C)c1=O",
    "Target Under Test": "setaria viridis",
    "Assay Result": 95
  }
]

setaria viridis data for `Cn1c(=O)n(-c2cccc(F)c2)c(=O)c2cc(C(=O)C3=C(O)CCCC3=O)ccc21` ; its herbicidal activity inhibition ratio (%), Setaria viridis: 80

setaria viridis data for `Cc1ccccc1-n1c(=O)c2cc(C(=O)C3=C(O)CCCC3=O)ccc2n(C)c1=S` ; its herbicidal activity inhibition ratio (%), Setaria viridis: 10

====

System: echinochloa crusgalli
Assay: Herbicidal activity, pot culture method (primary and secondary screening test)
Format: in vivo
Details: dose 37.5 g/ha, sprayed at 3-leaf stage, investigated 15 days later
Excerpt: This test example is for describing the herbicidal activity inhibition ratio (%) (the dose is 150 g/ha) of the compound with a structure shown in Formula (I). Primary screening test (pot culture method): The test targets are abutilon theophrasti, digitaria sanguinalis, amaranthus retroflexus, echinochloa crusgalli, eclipta prostrata and setaria viridis. […]
Recorded inhibition ratio, Echinochloa crusgalli by entry
Express it in %; write the number only.

[
  {
    "Molecule": "CCc1ccccc1-n1c(=O)c2cc(C(=O)C3=C(O)CCCC3=O)ccc2n(C)c1=O [Compound 47]",
    "Target Under Test": "echinochloa crusgalli",
    "inhibition ratio, Echinochloa crusgalli / %": 80
  }
]

Here is another molecule to look at.
molecule Cn1c(=O)n(-c2cccc(Br)c2)c(=O)c2cc(C(=O)C3=C(O)CCCC3=O)ccc21 [Compound 23] , inhibition ratio, Echinochloa crusgalli observed: 20

====

Tested on: abutilon theophrasti
Experiment: Herbicidal activity, pot culture method (primary and secondary screening test)
Type: in vivo
Details: dose 37.5 g/ha, sprayed at 3-leaf stage, investigated 15 days later
Recorded Endpoint: inhibition ratio, Abutilon theophrasti (%)
Express it in %; write the number only.

Recorded results for 8 compounds are shown here.
[
  {
    "Compound": "CCc1ccccc1-n1c(=O)c2cc(C(=O)C3=C(O)CCCC3=O)ccc2n(C)c1=O",
    "inhibition ratio, Abutilon theophrasti [%]": 60
  },
  {
    "Compound": "CCn1c(=O)n(-c2ccccc2C)c(=O)c2cc(C(=O)C3=C(O)CC(C)CC3=O)ccc21 (stereo not drawn)",
    "inhibition ratio, Abutilon theophrasti [%]": 50
  },
  {
    "Compound": "Cc1cccc(C)c1-n1c(=O)c2cc(C(=O)C3=C(O)CCCC3=O)ccc2n(C)c1=O",
    "inhibition ratio, Abutilon theophrasti [%]": 30
  },
  {
    "Compound": "CS(=O)(=O)c1ccc(C(=O)C2C(=O)CCCC2=O)c([N+](=O)[O-])c1 [Mesotrione, mesotrione, reference compound]",
    "inhibition ratio, Abutilon theophrasti [%]": 100
  },
  {
    "Compound": "Cc1ccccc1-n1c(=O)c2cc(C(=O)C3=C(O)CC(C)(C)CC3=O)ccc2n(C)c1=O",
    "inhibition ratio, Abutilon theophrasti [%]": 70
  },
  {
    "Compound": "Cn1c(=O)n(-c2ccccc2Cl)c(=O)c2cc(C(=O)C3=C(O)CCCC3=O)ccc21",
    "inhibition ratio, Abutilon theophrasti [%]": 60
  },
  {
    "Compound": "Cc1c(C(=O)C2=C(O)CC(C)(C)CC2=O)ccc2c1c(=O)n(-c1ccccc1C(F)(F)F)c(=O)n2C",
    "inhibition ratio, Abutilon theophrasti [%]": 85
  },
  {
    "Compound": "CCn1c(=O)n(-c2ccccc2C)c(=O)c2cc(C(=O)C3=C(O)CCCC3=O)ccc21",
    "inhibition ratio, Abutilon theophrasti [%]": 100
  }
]

compound `Cc1ccccc1-n1c(=O)c2cc(C(=O)C3=C(O)CCCC3=O)ccc2n(C)c1=O` , inhibition ratio, Abutilon theophrasti observed: 30

compound `Cn1c(=O)n(-c2ccccc2Cl)c(=O)c2cc(C(=O)C3=C(O)CC(C)(C)CC3=O)ccc21` , inhibition ratio, Abutilon theophrasti observed: 70

compound `CC(C)c1ccccc1-n1c(=O)c2cc(C(=O)C3=C(O)CCCC3=O)ccc2n(C)c1=O` , inhibition ratio, Abutilon theophrasti observed: 50

compound `Cn1c(=O)n(-c2cccc(Br)c2)c(=O)c2cc(C(=O)C3=C(O)CCCC3=O)ccc21` , inhibition ratio, Abutilon theophrasti observed: 100
